Hello, the source for this data is ChEMBL document CHEMBL2331340, in case you need it.

System: CCRF-CEM
Protocol Details: Cytotoxicity against human CCRF-CEM cells after 72 hrs by XTT assay
Type: functional, cell-based
Each entry below lists one item and its recorded pIC50 value.
Remember the convention: pIC50 equals -log10 of concentration in molar.

// field: pIC50; key: CCNC(=O)OCc1c(COC(=O)NCC)c(-c2ccc(Cl)cc2)n2c1Cc1c(n(C)c3ccccc13)C2 ; value = 6.46

The measured pIC50 associated with CC(C)NC(=O)OCc1c(COC(=O)NC(C)C)c(-c2ccccc2)n2c1Cc1c(n(C)c3ccccc13)C2 reads 6.89

For this compound ( CCNC(=O)OCc1c(COC(=O)NCC)c(-c2ccc(OC)cc2)n2c1Cc1c(n(C)c3ccccc13)C2 ), measured pIC50 is 7.00

The value of pIC50 measured for the compound CCNC(=O)OCc1c(COC(=O)NCC)c2n(c1C)Cc1c(c3ccccc3n1CC)C2 turned out to be 6.85

Lab note: CCn1c2c(c3ccccc31)Cc1c(CO)c(CO)c(C)n1C2 gave pIC50 of 7.00

New cases:
For reference, reported pIC50 for Cc1c(COC(=O)NC(C)C)c(COC(=O)NC(C)C)c2n1Cc1c(c3ccccc3n1Cc1ccccc1)C2 stands at 7.00

Form: compound = COc1ccc(-c2c(COC(=O)NC(C)C)c(COC(=O)NC(C)C)c3n2Cc2c(c4ccccc4n2C)C3)cc1OC ; pIC50 = 6.52

Reported pIC50 of CCc1c(CO)c(CO)c2n1Cc1c(c3ccccc3n1C)C2 : 6.70

Briefly, pIC50 measured for Cc1c(CO)c(CO)c2n1Cc1c(c3ccccc3n1Cc1ccccc1)C2 : 6.54
